test: Plasma stability (HPLC, Cerep); type: in vitro ADME; details: 1 μM in human plasma, incubation time 60 minutes; read-out: % Mean Compound Remaining

| compound | remaining at 1 h, 1 μM |
| --- | --- |
| CC(C)C[C@@H]1NC(=O)CNC(=O)[C@H](Cc2ccccc2)NC(=O)[C@@H](N)Cc2ccc(cc2)N=Nc2cc(ccc2O)C[C@@H](C(N)=O)NC(=O)[C@H](Cc2c[nH]c3ccccc23)NC(=O)[C@H](CCCNC(=N)N)NC1=O [Peptide 6, Pap-Phe-Gly-Leu-Arg-Trp-Tyr-NH2] | 93.7% |

---

test: Plasma stability (HPLC, Cerep); assay type: in vitro ADME; conditions: 1 μM in human plasma, incubation time 120 minutes; read-out: % Mean Compound Remaining
endpoint-name: remaining at 2 h, 1 μM (%)

| molecule | endpoint-name | result |
| --- | --- | --- |
| CC(C)C[C@@H]1NC(=O)CNC(=O)[C@H](Cc2ccccc2)NC(=O)[C@@H](N)Cc2ccc(cc2)N=Nc2cc(ccc2O)C[C@@H](C(N)=O)NC(=O)[C@H](Cc2c[nH]c3ccccc23)NC(=O)[C@H](CCCNC(=N)N)NC1=O [Peptide 6, Pap-Phe-Gly-Leu-Arg-Trp-Tyr-NH2] | remaining at 2 h, 1 μM | 71.8 |
